Below: a set of entries, each annotated with reported GI50.
biological target: Ba/F3_KRAS^G12D cells (Homo sapiens, UniProt P01116, G12D, cells depend on it); test: Ba/F3 KRAS^G12D cell proliferation assay (cell-titer Glo); format: cell-based; details: cell growth inhibition, treated with the compounds for 3 days, read-out: BaF3_KRAS^G12D IC50
Sequence (P01116 whole entry G12D): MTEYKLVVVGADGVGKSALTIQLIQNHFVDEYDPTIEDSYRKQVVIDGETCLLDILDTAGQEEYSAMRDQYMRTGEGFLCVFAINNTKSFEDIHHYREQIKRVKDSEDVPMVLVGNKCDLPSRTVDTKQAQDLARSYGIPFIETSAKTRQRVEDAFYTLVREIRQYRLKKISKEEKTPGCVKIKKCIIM
recorded metric: GI50

[[record]]
substance_smiles = "C#Cc1c(F)ccc2cc(O)cc(-c3nc(OC)c4c(N5CC6CCC(C5)N6)nc(OCC5(CN6CCOCC6)CC5)nc4c3F)c12"
value = "< 500 nM"

[[record]]
substance_smiles = "C#Cc1c(F)ccc2cc(O)cc(-c3nc(O)c4c(N5CC6CCC(C5)N6)nc(OCCOC)nc4c3F)c12"
value = "< 500 nM"

[[record]]
substance_smiles = "Cc1nc(-c2cc(O)cc3cccc(C#N)c23)c(F)c2nc(OC[C@@]34CCCN3C[C@H](F)C4)nc(N3CC4CCC(C3)N4)c12"
value = "> 5000 nM"

[[record]]
substance_smiles = "C#Cc1c(F)ccc2cc(O)cc(-c3nc(OC(C)C)c4c(N5CC6CCC(C5)N6C)nc(OC[C@@]56CCCN5C[C@H](F)C6)nc4c3F)c12"
value = "< 500 nM"

[[record]]
substance_smiles = "Cc1nc(-c2cc(O)cc3ccc(F)c(OC(F)F)c23)c(F)c2nc(OC[C@@]34CCCN3C[C@H](F)C4)nc(N3CC4CCC(C3)N4)c12"
value = "< 500 nM"

[[record]]
substance_smiles = "Cc1cc(N)nc(-c2nc(C)c3c(N4CC5CCC(C4)N5)nc(OC[C@@]45CCCN4C[C@H](F)C5)nc3c2F)c1C1CC1"
value = "> 5000 nM"

[[record]]
substance_smiles = "C#Cc1c(F)ccc2cc(N)cc(-c3nc(O)c4c(N5CC6CCC(C5)N6)nc(OC[C@@H]5C[C@@H](F)CN5C)nc4c3F)c12"
value = "500 to 5000 nM"

[[record]]
substance_smiles = "C#Cc1c(F)ccc2cc(O)cc(-c3cc4nc(OC[C@@]56CCCN5C[C@H](F)C6)nc(N5CC6CCC(C5)N6)c4c(C)n3)c12"
value = "< 500 nM"

[[record]]
substance_smiles = "C#Cc1c(F)ccc2cccc(-c3nc(OC)c4c(N5CCNCC(F)(F)C5)nc(OC[C@]56CCCN5[C@@H](COC(=O)N(C)C)CC6)nc4c3F)c12"
value = "500 to 5000 nM"

[[record]]
substance_smiles = "C#Cc1c(F)ccc2cc(O)cc(-c3nc(OC(C)C)c4c(N5CC6CCC(C5)N6)nc(OC[C@@H]5CCCN5C)nc4c3F)c12"
value = "< 500 nM"

[[record]]
substance_smiles = "C#Cc1c(F)ccc2cc(O)cc(-c3nc(C4CC4)c4c(N5CC6CCC(C5)N6)nc(OC[C@@]56CCCN5C[C@H](F)C6)nc4c3F)c12"
value = "< 500 nM"

[[record]]
substance_smiles = "CCOc1nc(-c2cc(N)cc(F)c2C(F)(F)F)c(F)c2nc(OC[C@@]34CCCN3C[C@H](F)C4)nc(N3CC4CCC(C3)N4)c12"
value = "< 500 nM"


The values you see were collected from patent US20230357233A1.
